Measured values drawn from patent US20080076760A1 for this set.

# target of assay: UniProt P30518
# Sequence (P30518 whole entry): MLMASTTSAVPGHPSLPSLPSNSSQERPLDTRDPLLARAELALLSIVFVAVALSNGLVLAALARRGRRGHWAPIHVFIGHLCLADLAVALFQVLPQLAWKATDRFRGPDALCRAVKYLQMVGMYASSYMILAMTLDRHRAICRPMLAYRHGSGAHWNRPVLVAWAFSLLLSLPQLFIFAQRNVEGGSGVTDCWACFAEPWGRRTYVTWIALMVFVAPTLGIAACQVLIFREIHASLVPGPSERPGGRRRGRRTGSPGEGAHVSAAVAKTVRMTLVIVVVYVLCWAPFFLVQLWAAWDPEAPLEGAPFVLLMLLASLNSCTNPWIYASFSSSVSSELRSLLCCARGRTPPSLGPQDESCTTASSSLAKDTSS
# procedure summary: Receptor binding study, [3H]AVP displacement on CHO cell membranes, human V2
# condition parameters: [3H]AVP displacement, CHO cell membrane, 25° C., one hour; read-out: Human V2 Ki
# Protocol: Preparation of Chinese hamster ovary (Cho) cell which expresses human vasopressin receptor subtype and production of membrane sample of the cell was conducted according to the method of Tahara et al. (Br. J. Pharmacol., 125, 1463-1470, 1998). […] In saturation binding experiment, the membrane sample and [^3H]AVP of several concentrations (0.125 nM to 4.0 nM) were mixed and incubated in microplate wells. […] Nonspecific binding was determined using nonradioactive-labeled AVP (1 μM).
Please note: Ki exactly at 90 nM is FALSE. Only values below 90 nM get TRUE.

compound: C[C@H]1CCN(C(=O)c2ccc(-c3ccc4[nH]ccc4c3)c(C(=O)OCCCN3CCN(C)CC3)c2)c2ccccc2N1
classification: TRUE

compound: CCCN(C)CCCOc1cc(C(=O)N2CC[C@H](C)Nc3ccccc32)ccc1-c1ccc(N)cc1
classification: FALSE

compound: CCCCCN(C)CCCCOc1cc(C(=O)N2CC[C@H](C)Nc3ccccc32)ccc1-c1ccc2[nH]ccc2c1
classification: TRUE

compound: C[C@H]1CCN(C(=O)c2ccc(-c3ccc4[nH]ccc4c3)c(OCCN3CCOCC3)c2)c2ccccc2N1
classification: TRUE

### Prompt Identify whether the compound COc1ccc(S(=O)(=O)N2c3ccc(Cl)cc3[C@](O)(c3ccccc3Cl)[C@@H]2C(=O)N2CCC[C@H]2C(N)=O)cc1OC [SR49059, reference compound] records Ki below 90 nM.
### Response FALSE

### Prompt Identify whether the compound CCN1CCC(OC(=O)c2cc(C(=O)N3CC[C@H](C)Nc4ccccc43)ccc2-c2ccc3[nH]ccc3c2)C1 (stereo partly shown) records Ki below 90 nM.
### Response TRUE

---

# target of assay: UniProt:P30518
# procedure summary: Receptor binding study, [3H]AVP displacement on CHO cell membranes, human V2
# condition parameters: [3H]AVP displacement, CHO cell membrane, 25° C., one hour; read-out: Human V2 Ki
# Method: Preparation of Chinese hamster ovary (Cho) cell which expresses human vasopressin receptor subtype and production of membrane sample of the cell was conducted according to the method of Tahara et al. (Br. J. Pharmacol., 125, 1463-1470, 1998). […] In saturation binding experiment, the membrane sample and [^3H]AVP of several concentrations (0.125 nM to 4.0 nM) were mixed and incubated in microplate wells. […] Nonspecific binding was determined using nonradioactive-labeled AVP (1 μM).
Kindly note that classification relies on Ki with these boundaries: LOW = under 10 nM, MEDIUM = from 10 nM up to 20 nM, HIGH = 20 nM and over

Would you please look over these solved cases?
compound: CCCN(C)CCCOc1cc(C(=O)N2CC[C@H](C)Nc3ccccc32)ccc1-c1ccc(OC(F)F)cc1
target of assay: UniProt:P30518
classification: HIGH
--
compound: C[C@H]1CCN(C(=O)c2ccc(-c3ccc4[nH]ccc4c3)c(OCCCN(C)CCN(C)C)c2)c2ccccc2N1
target of assay: UniProt:P30518
classification: HIGH
--
compound: CCCN(C)CCCOc1cc(C(=O)N2CC[C@@H](C)Nc3ccccc32)ccc1-c1ccc(NC)cc1
target of assay: UniProt:P30518
classification: HIGH
--
compound: CCCCN1CCN(CCCOc2cc(C(=O)N3CC[C@H](C)Nc4ccccc43)ccc2-c2ccc3[nH]ccc3c2)CC1
target of assay: UniProt:P30518
classification: LOW

### Prompt Returns: class label. Input: C[C@H]1CCN(C(=O)c2ccc(-c3ccc4[nH]ccc4c3)c(OCCCN3CCCN(C)CC3)c2)c2ccccc2N1
### Response LOW

### Prompt Returns: class label. Input: C[C@H]1CCN(C(=O)c2ccc(-c3ccc4[nH]ccc4c3)c(OCCCN3CCOC3=O)c2)c2ccccc2N1
### Response LOW

### Prompt Returns: class label. Input: CC(=O)Nc1cc(C(=O)N2CC[C@H](C)Nc3ccccc32)ccc1-c1ccc2[nH]ccc2c1
### Response MEDIUM

### Prompt Returns: class label. Input: C[C@H]1CCN(C(=O)c2ccc(-c3ccc4[nH]ccc4c3)c(OCCCN(C)C(C)(C)C)c2)c2ccccc2N1
### Response MEDIUM

### Prompt Returns: class label. Input: CCCN(C)CCCOc1cc(C(=O)N2CC[C@H](C)Nc3ccccc32)ccc1-c1ccc(OC)cc1
### Response HIGH

### Prompt Returns: class label. Input: C[C@H]1CCN(C(=O)c2ccc(-c3ccc4[nH]ccc4c3)c(NC(=O)N3CCOCC3)c2)c2ccccc2N1
### Response MEDIUM

### Prompt Returns: class label. Input: COc1cc(C(=O)N2CCC(C)Nc3ccccc32)ccc1-c1ccc2[nH]ccc2c1 (stereo not drawn)
### Response LOW

### Prompt Returns: class label. Input: CCCN(CC)CCCOc1cc(C(=O)N2CC[C@H](C)Nc3ccccc32)ccc1-c1ccc2[nH]ccc2c1
### Response MEDIUM

### Prompt Returns: class label. Input: CC(=O)Nc1cc(C(=O)N2CCC(C(C)C)Nc3ccccc32)ccc1-c1ccc2[nH]ccc2c1 (stereo not drawn)
### Response MEDIUM
